test: physchem; conditions: NaOH-NaHCO3 buffer, pH 9.57
Description: Solubility in NaOH-NaHCO3 buffer at pH 9.57 in presence of 0.1132 mol/l hydroxypropyl-beta-cyclodextrin
outcome-measure: solubility (µg/mL)
One number for each entry, in µg/mL.

Fill blank: measured solubility of the compound CC(=O)Nc1nnc(S(N)(=O)=O)s1 [ACETAZOLAMIDE] is ____.
5930

----------
test: physchem; conditions: NaOH-NaHCO3 buffer, pH 9.57
Description: Solubility in NaOH-NaHCO3 buffer at pH 9.57 in presence of 0.0302 mol/l hydroxypropyl-beta-cyclodextrin
outcome-measure: solubility (µg/mL)
Give bare numbers, in µg/mL.

Suppose we examine the compound CC(=O)Nc1nnc(S(N)(=O)=O)s1 [ACETAZOLAMIDE] ; what solubility value has been reported?
3620

----------
experiment: physchem; settings: NaOH-NaHCO3 buffer, pH 9.57
Description: Solubility in NaOH-NaHCO3 buffer at pH 9.57 in presence of 0.0755 mol/l hydroxypropyl-beta-cyclodextrin
outcome-measure: solubility (µg/mL)
Numbers only, in µg/mL.

Requested read-out: solubility. Entry: CC(=O)Nc1nnc(S(N)(=O)=O)s1 [ACETAZOLAMIDE]
5290

----------
assay: physchem; details: citric acid-Na2HPO4 buffer, pH 4.12
Description: Solubility in citric acid-Na2HPO4 buffer at pH 4.12 in presence of 0.1660mol/l hydroxypropyl-beta-cyclodextrin
outcome-measure: solubility (µg/mL)
Give bare numbers, in µg/mL.

What does the data say about its solubility? Entry: CC(=O)Nc1nnc(S(N)(=O)=O)s1 [ACETAZOLAMIDE]
4970

----------
assay: physchem; conditions: water
Description: Solubility in water in presence of 0.0302 mol/l hydroxypropyl-beta-cyclodextrin
outcome-measure: solubility
The reply should consist of the numeric value with the unit placed after it.

Given the entry CC(=O)Nc1nnc(S(N)(=O)=O)s1 [ACETAZOLAMIDE] , report its measured solubility.
2440 µg/mL

----------
assay: physchem; settings: citric acid-Na2HPO4 buffer, pH 4.12
Description: Solubility in citric acid-Na2HPO4 buffer at pH 4.12
outcome-measure: solubility (µg/mL)
Answers are plain numbers, in µg/mL.

I would be grateful if you could share the reported solubility for CC(=O)Nc1nnc(S(N)(=O)=O)s1 [ACETAZOLAMIDE] .
850

----------
assay: physchem; details: water
Description: Solubility in water in presence of 0.334 mol/l triethanolamine
outcome-measure: solubility (µg/mL)
One number for each entry, in µg/mL.

Requested field: solubility. Item: CC(=O)Nc1nnc(S(N)(=O)=O)s1 [ACETAZOLAMIDE]
3860

----------
assay: physchem; details: water
Description: Solubility in water in presence of 0.0151 mol/l hydroxypropyl-beta-cyclodextrin
outcome-measure: solubility (µg/mL)
One number for each entry, in µg/mL.

I would be grateful if you could share the reported solubility for CC(=O)Nc1nnc(S(N)(=O)=O)s1 [ACETAZOLAMIDE] .
1880

----------
experiment: physchem; conditions: NaOH-NaHCO3 buffer, pH 9.57
Description: Solubility in NaOH-NaHCO3 buffer at pH 9.57 in presence of 0.0604 mol/l hydroxypropyl-beta-cyclodextrin
outcome-measure: solubility (µg/mL)
Give bare numbers, in µg/mL.

Looking for the measured solubility of CC(=O)Nc1nnc(S(N)(=O)=O)s1 [ACETAZOLAMIDE] , can you help?
4770

----------
experiment: physchem; details: water
Description: Solubility in water in presence of 0.0755 mol/l hydroxypropyl-beta-cyclodextrin
outcome-measure: solubility (µg/mL)
Answers are plain numbers, in µg/mL.

# query: solubility of entry CC(=O)Nc1nnc(S(N)(=O)=O)s1 [ACETAZOLAMIDE]
5530

----------
experiment: physchem; conditions: NaOH-NaHCO3 buffer, pH 9.57
Description: Solubility in NaOH-NaHCO3 buffer at pH 9.57 in presence of 0.2 M hydroxypropyl-beta-cyclodextrin
outcome-measure: solubility (µg/mL)
Give bare numbers, in µg/mL.

For the compound shown here, CC(=O)Nc1nnc(S(N)(=O)=O)s1 [ACETAZOLAMIDE] , give the reported solubility.
7020

----------
assay: physchem; details: NaOH-NaHCO3 buffer, pH 9.57
Description: Solubility in NaOH-NaHCO3 buffer at pH 9.57 in presence of 0.0226 mol/l hydroxypropyl-beta-cyclodextrin
outcome-measure: solubility (µg/mL)
Numbers only, in µg/mL.

# get_value(readout='solubility', item= CC(=O)Nc1nnc(S(N)(=O)=O)s1 [ACETAZOLAMIDE] )
3210

----------
assay: physchem; settings: citric acid-Na2HPO4 buffer, pH 4.12
Description: Solubility in citric acid-Na2HPO4 buffer at pH 4.12 in presence of 0.0604 mol/l hydroxypropyl-beta-cyclodextrin
outcome-measure: solubility (µg/mL)
One number for each entry, in µg/mL.

Suppose we examine the compound CC(=O)Nc1nnc(S(N)(=O)=O)s1 [ACETAZOLAMIDE] ; what solubility value has been reported?
2280

----------
test: physchem; conditions: citric acid-Na2HPO4 buffer, pH 4.12
Description: Solubility in citric acid-Na2HPO4 buffer at pH 4.12 in presence of 0.0226 mol/l hydroxypropyl-beta-cyclodextrin
outcome-measure: solubility (µg/mL)
Answers are plain numbers, in µg/mL.

Using the record for CC(=O)Nc1nnc(S(N)(=O)=O)s1 [ACETAZOLAMIDE] , report its solubility.
1660

----------
test: physchem; conditions: water
Description: Solubility in water in presence of 0.1132 mol/l hydroxypropyl-beta-cyclodextrin
outcome-measure: solubility (µg/mL)
Answers are plain numbers, in µg/mL.

Item under review: CC(=O)Nc1nnc(S(N)(=O)=O)s1 [ACETAZOLAMIDE] . Reported solubility?
7030

----------
experiment: physchem; conditions: citric acid-Na2HPO4 buffer, pH 4.12
Description: Solubility in citric acid-Na2HPO4 buffer at pH 4.12 in presence of 0.0302 mol/l hydroxypropyl-beta-cyclodextrin
outcome-measure: solubility (µg/mL)
One number for each entry, in µg/mL.

For CC(=O)Nc1nnc(S(N)(=O)=O)s1 [ACETAZOLAMIDE] , what is its reported solubility?
1830

----------
assay: physchem; conditions: citric acid-Na2HPO4 buffer, pH 4.12
Description: Solubility in citric acid-Na2HPO4 buffer at pH 4.12 in presence of 0.1132 mol/l hydroxypropyl-beta-cyclodextrin
outcome-measure: solubility
Put down the number, then write its unit next to it.

Sample CC(=O)Nc1nnc(S(N)(=O)=O)s1 [ACETAZOLAMIDE] — what was its solubility?
3780 µg/mL

----------
assay: physchem; conditions: water
Description: Solubility in water in presence of 0.0604 mol/l hydroxypropyl-beta-cyclodextrin
outcome-measure: solubility

Find the recorded solubility belonging to CC(=O)Nc1nnc(S(N)(=O)=O)s1 [ACETAZOLAMIDE] and report it.
4510 µg/mL

----------
assay: physchem; conditions: NaOH-NaHCO3 buffer, pH 9.57
Description: Solubility in NaOH-NaHCO3 buffer at pH 9.57 in presence of 0.1660 mol/l hydroxypropyl-beta-cyclodextrin
outcome-measure: solubility (µg/mL)
Give bare numbers, in µg/mL.

Any idea what its solubility is? The molecule is CC(=O)Nc1nnc(S(N)(=O)=O)s1 [ACETAZOLAMIDE]
7020

----------
test: physchem; conditions: water
Description: Solubility in water in presence of 0.1001 mol/l triethanolamine
outcome-measure: solubility (mg/mL)
Numbers only, in mg/mL.

Value lookup for solubility; key = CC(=O)Nc1nnc(S(N)(=O)=O)s1 [ACETAZOLAMIDE]
5.91

Numbers sourced from ChEMBL document CHEMBL1149779.
